The measurements presented in this section are drawn from PubChem BioAssay (NCATS).

Target Or System: Retinaldehyde dehydrogenase 3 (Homo sapiens)
Test Details: qHTS for Inhibitors of the Aldehyde Dehydrogenase Family (ALDH1A3) Validation screen (AID 2061312); further: nearly all actives have a fitted effect of over 45% in size
Conditions Used: ALDH1A3 enzyme inhibition qHTS validation, fluorescence; series mostly up to 84.7 µM
Records with an inconclusive call do not appear. The source made the active and inactive calls. The call rests on the fitted dose curve; in most records, active means well fitted inhibition curve with a large enough effect; inconclusive means small, poorly fitted or top-dose-only effect; inactive means no such curve, though single readings can be large or run the other way.
Measurement Name: outcome

Worked cases, outcome given:
Compound: NC1(C(=O)N[C@@H](CCO)c2ccc(Cl)cc2)CCN(c2ncnc3[nH]ccc23)CC1
Target Or System: Retinaldehyde dehydrogenase 3 (Homo sapiens)
outcome: inactive
//
Compound: CC(C)C(=O)c1cn(CC(=O)COc2ccc(Oc3ccccc3)cc2)c2ccc(C(=O)O)cc12
Target Or System: Retinaldehyde dehydrogenase 3 (Homo sapiens)
outcome: inactive
//
Compound: CC[C@H]1CN(c2nc(N)c(C(N)=O)nc2Cl)CCN1C1CCN(Cc2ccc(Cl)cc2)CC1
Target Or System: Retinaldehyde dehydrogenase 3 (Homo sapiens)
outcome: inactive
//
Compound: CCOc1ccc(CCNC(=O)c2cc3sc(Cl)cc3n2C)cc1OCC
Target Or System: Retinaldehyde dehydrogenase 3 (Homo sapiens)
outcome: inactive

Input: Fill in: outcome of CN1C(=O)CC[C@H]1c1cccnc1 is ___
Output: inactive

Input: Tell me the measured outcome of OCC1NCC(O)C(O)C1O (stereo unspecified) , please.
Output: inactive

Input: Could you tell me which outcome is on file for COC(=O)C(CC1CCCC1)c1ccc(S(C)(=O)=O)cc1 (stereo unspecified) ?
Output: inactive

Input: # outcome lookup, item CC(C)c1nnc(-c2ccc(-c3ccccc3)nc2)n1-c1cccc2nonc12
Output: inactive

Input: Look up outcome for this compound: NC(=O)CCCSc1nc(N)nc(-c2c(Cl)cc3c4c(cccc24)COC3)n1
Output: inactive

Input: Looking for the measured outcome of Cn1c(=O)c2[nH]c(-c3ccc(S(=O)(=O)O)cc3)nc2n(C)c1=O , can you help?
Output: inactive

Input: What value of measured outcome is listed for NC(N)=N[C@@H](CCC(=O)O)C(=O)O ?
Output: inactive
